// data source = PubChem BioAssay AID1963968

Tested on: 945468-187-T-J3-PDC spheroids with HUVEC/MSC, viability
PROCEDURE_SUMMARY: Anticancer human tumor 945468-187-T-J3-PDC patient-derived rectal carcinoma cell line growth inhibition [PI3K]
MEASUREMENT_CONDITIONS: second compound 0.1 µM; first compound 0.316 µM; hits give low values
The entries below are paired with their reported viability, T/C.

# MOLECULE, viability, T/C / %
rows = [
    ("C=CC(=O)N1CCN(c2nc(=O)n(-c3c(C)ccnc3C(C)C)c3nc(-c4c(O)cccc4F)c(F)cc23)C(C)C1 (stereo not drawn) + COc1c(OCCCN2CCOCC2)ccc2c3n(c(=NC(=O)c4cnc(N)nc4)nc12)CCN3", 57.6),
    ("C#Cc1c(F)ccc2cc(O)cc(-c3ncc4c(N5CC6CCC(C5)N6)nc(OCC56CCCN5CC(F)C6)nc4c3F)c12 (stereo not drawn) + Cc1nc(NC(=O)N2CCCC2C(N)=O)sc1-c1ccnc(C(C)(C)C(F)(F)F)c1", 101),
    ("CC1(C)CCC(Nc2ncc(C(F)(F)F)c(-c3c[nH]c4c(P(C)(C)=O)c(C#N)ccc34)n2)CN1 (stereo not drawn) + Cc1nc(NC(=O)N2CCCC2C(N)=O)sc1-c1ccnc(C(C)(C)C(F)(F)F)c1", 79),
]

----------
System: 945468-187-T-J3-PDC spheroids with HUVEC/MSC, viability
PROCEDURE_SUMMARY: Anticancer human tumor 945468-187-T-J3-PDC cell line growth inhibition [PI3K];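 also: spheroids exposed to agents for 7 days before viability read; 100% = DMSO vehicle control viability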
MEASUREMENT_CONDITIONS: second compound 10 µM; first compound 0.001 µM; hits give low values

# COMPOUND, viability, T/C [%]
measured = [
    ("CC(C)n1nc(-c2ccc3oc(N)nc3c2)c2c(N)ncnc21 + CC(Nc1ncnc2nc[nH]c12)c1cc2cccc(Cl)c2c(=O)n1-c1ccccc1", 96.9),
    ("Cn1ncnc1[C@H]1c2n[nH]c(=O)c3cc(F)cc(c23)N[C@@H]1c1ccc(F)cc1 + Cc1nc(NC(=O)N2CCCC2C(N)=O)sc1-c1ccnc(C(C)(C)C(F)(F)F)c1", 68),
    ("Cn1ncnc1[C@H]1c2n[nH]c(=O)c3cc(F)cc(c23)N[C@@H]1c1ccc(F)cc1 + CC(Nc1ncnc2nc[nH]c12)c1cc2cccc(Cl)c2c(=O)n1-c1ccccc1", 97.5),
    ("CC(C)n1nc(-c2ccc3oc(N)nc3c2)c2c(N)ncnc21 + Cc1nc(NC(=O)N2CCCC2C(N)=O)sc1-c1ccnc(C(C)(C)C(F)(F)F)c1", 53.3),
    ("CC(=O)c1c(C)c2cnc(Nc3ccc(N4CCNCC4)cn3)nc2n(C2CCCC2)c1=O + CC(Nc1ncnc2nc[nH]c12)c1cc2cccc(Cl)c2c(=O)n1-c1ccccc1", 107),
    ("CC(=O)c1c(C)c2cnc(Nc3ccc(N4CCNCC4)cn3)nc2n(C2CCCC2)c1=O + Cc1nc(NC(=O)N2CCCC2C(N)=O)sc1-c1ccnc(C(C)(C)C(F)(F)F)c1", 56),
]

----------
The entries below are paired with their reported viability, T/C.
System: 945468-187-T-J3-PDC spheroids with HUVEC/MSC, viability
PROCEDURE_SUMMARY: Anticancer human tumor 945468-187-T-J3-PDC cell line growth inhibition [PI3K];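 also: spheroids exposed to agents for 7 days before viability read; 100% = DMSO vehicle control viability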
MEASUREMENT_CONDITIONS: second compound 10 µM; first compound 3.16 µM; hits give low values
READOUT_LABEL: viability, T/C (%)

# MOLECULE, REPORTED
data = [
    ("C=CC(=O)N1CCN(c2nc(=O)n(-c3c(C)ccnc3C(C)C)c3nc(-c4c(O)cccc4F)c(F)cc23)C(C)C1 (centres undefined) + CC(Nc1ncnc2nc[nH]c12)c1cc2cccc(Cl)c2c(=O)n1-c1ccccc1", 116),
    ("CC(C)NCC(C(=O)N1CCN(c2ncnc3c2C(C)CC3O)CC1)c1ccc(Cl)cc1 (centres undefined) + CC(Nc1ncnc2nc[nH]c12)c1cc2cccc(Cl)c2c(=O)n1-c1ccccc1", 37.5),
    ("C#Cc1c(F)ccc2cc(O)cc(-c3ncc4c(N5CC6CCC(C5)N6)nc(OCC56CCCN5CC(F)C6)nc4c3F)c12 (centres undefined) + Cc1nc(NC(=O)N2CCCC2C(N)=O)sc1-c1ccnc(C(C)(C)C(F)(F)F)c1", 26.9),
    ("CC(Cn1ccc(-c2ccc(C#N)c(Cl)c2)n1)NC(=O)c1cc(C(C)O)[nH]n1 (centres undefined) + CC(Nc1ncnc2nc[nH]c12)c1cc2cccc(Cl)c2c(=O)n1-c1ccccc1", 104),
]
